# Read-out: Matrix Metallopeptidase 1 (MMP1), MMP1 (gene 4312)
# assay-info: BSK_MyoF_MMP1: BioMAP Diversity Plus: MyoF Assay for Matrix Metallopeptidase 1 (MMP1) Biomarker Activity (AID 2284268)
# run-conditions: primary human lung fibroblasts
The source made the active and inactive calls. How the source made its calls: active means hit-call score of the fitted dose curve at least 0.9, where 1 is the maximum; inactive means score below 0.9.
quantity-name: AC50

Example entries begin here.
O=C1c2ccc(O)c(O)c2C(=O)c2c(O)ccc(O)c21 | inactive
C=CC(C)(CCC=C(C)C)OC(C)=O (configuration not stated) | inactive
C=CC(=O)OCCC(F)(F)C(F)(F)C(F)(F)C(F)(F)C(F)(F)C(F)(F)C(F)(F)C(F)(F)F | inactive
Oc1cc2ccccc2cc1O | inactive
C=CC(=C)CC/C=C(\C)CCC=C(C)C | inactive

Please report the recorded AC50 for CCCCC(CC)C(=O)OCCOCCOCCOCCOC(=O)C(CC)CCCC (configuration not stated) .
inactive

Please report the recorded AC50 for `CN(CCO)S(=O)(=O)C(F)(F)C(F)(F)C(F)(F)C(F)(F)C(F)(F)C(F)(F)C(F)(F)C(F)(F)F` .
inactive

Please report the recorded AC50 for `O=S(=O)(O)C(F)(F)C(F)(F)C(F)(F)C(F)(F)C(F)(F)C(F)(F)C(F)(F)C(F)(F)C(F)(F)C(F)(F)F` .
inactive

Please report the recorded AC50 for `COCN(COC)c1nc(N(COC)COC)nc(N(COC)COC)n1` .
inactive

Please report the recorded AC50 for `CN(C)c1ccc(C(=C2C=CC(=[N+](C)C)C=C2)c2ccccc2)cc1` .
inactive

Please report the recorded AC50 for `O=C1OC2(c3ccccc31)c1cc(I)c(O)c(I)c1Oc1c2cc(I)c(O)c1I` .
0.605 µM (active)

Please report the recorded AC50 for `O=C(O)CCC(F)(F)C(F)(F)C(F)(F)C(F)(F)C(F)(F)C(F)(F)F` .
inactive

---

# assay-info: CCTE_Padilla_ZF_Score.Blood_pooling: CCTE's 144 Hour Post-fertilization zebrafish Assay Score for Blood Pooling, Padilla Lab (AID 2284415)
Active and inactive are the calls of the source. How the source made its calls: active means hit-call score of the fitted dose curve at least 0.9, where 1 is the maximum; inactive means score below 0.9.
quantity-name: outcome

O=P(O)(O)CCC(F)(F)C(F)(F)C(F)(F)C(F)(F)C(F)(F)C(F)(F)C(F)(F)C(F)(F)F | inactive
FC(OC(F)(F)C(F)(F)C(F)(F)F)C(F)(F)F (stereo unspecified) | inactive
O=C(OC(=O)C(F)(F)C(F)(F)F)C(F)(F)C(F)(F)F | inactive
FC1(F)C=CC(F)(F)C1(F)F | inactive

Please report the recorded outcome for `O=C(CC(=O)C(F)(F)C(F)(F)C(F)(F)F)c1cccs1` .
inactive

Please report the recorded outcome for `COC(=O)C(F)(F)C(F)(F)C(F)(F)C(F)(F)C(F)(F)F` .
inactive

Please report the recorded outcome for `OCC(F)(F)C(F)(F)C(F)(F)C(F)(F)C(F)(F)C(F)(F)C(F)(F)C(F)(F)C(F)(F)C(F)(F)C(F)(F)F` .
inactive

---

# Read-out: Monocyte Chemoattractant Protein-1 (MCP1), CCL2 (gene 6347)
# assay-info: BSK_SAg_MCP1: BioMAP Diversity Plus: SAg Assay for Monocyte Chemoattractant Protein-1 (MCP1) Biomarker Activity (AID 2283090)
# run-conditions: primary human HUVEC with PBMC; actives raise or lower the signal
Activity calls are given as the source filed them. The calls were made as follows: active = hit-call score of the fitted dose curve at least 0.9, where 1 is the maximum; inactive = score below 0.9.
Choose one outcome from this list and give only that: active, inactive

CCCCCCCCCCCCCCCCCC[N+](C)(C)Cc1ccccc1 | active
CC[N+](CC)(CC)Cc1ccccc1 | inactive
CCCCc1oc2ccccc2c1C(=O)c1cc(I)c(OCCN(CC)CC)c(I)c1 | active
Oc1ccc(Cc2ccccc2O)cc1 | inactive
CCCCC=O | inactive
CCCCC(CC)C(=O)O (configuration not stated) | inactive
Oc1cc2ccccc2cc1O | inactive
CC1=NN(c2ccccc2)C(=O)C1 | inactive

Recorded call for `Cc1[nH]nc2c1N=C(c1ccccc1Cl)c1cc([N+](=O)[O-])ccc1N2` ?
active

Recorded call for `CN(C)c1ccc(C(=C2C=CC(=[N+](C)C)C=C2)c2ccccc2)cc1` ?
active

Recorded call for `O=P(O)(O)CCC(F)(F)C(F)(F)C(F)(F)C(F)(F)C(F)(F)C(F)(F)F` ?
inactive

Recorded call for `OCC(F)(F)C(F)(F)C(F)(F)C(F)(F)C(F)(F)C(F)(F)C(F)(F)C(F)(F)C(F)(F)C(F)(F)C(F)(F)F` ?
inactive

---

# Read-out: growth arrest and DNA damage 45 (GADD45G), GADD45G (gene 10912)
# assay-info: LTEA_HepaRG_GADD45G: Life Technologies and Expression Analysis (LTEA) Assay for growth arrest and DNA damage 45 (GADD45G) using HepaRG (AID 2283499)
# run-conditions: mRNA level, 48 h; actives raise or lower the signal
The source made the active and inactive calls. The calls were made as follows: active = hit-call score of the fitted dose curve at least 0.9, where 1 is the maximum; inactive = score below 0.9.
quantity-name: outcome

OCC(CO)(CBr)CBr | inactive
CCC(C)c1ccccc1O (stereo not drawn) | inactive
CCCCCCCCCCCCOS(=O)(=O)O | inactive

---

# system-under-test: X-box-binding protein 1 (Homo sapiens) (UniProt P17861)
# Sequence (P17861 whole entry, looked up): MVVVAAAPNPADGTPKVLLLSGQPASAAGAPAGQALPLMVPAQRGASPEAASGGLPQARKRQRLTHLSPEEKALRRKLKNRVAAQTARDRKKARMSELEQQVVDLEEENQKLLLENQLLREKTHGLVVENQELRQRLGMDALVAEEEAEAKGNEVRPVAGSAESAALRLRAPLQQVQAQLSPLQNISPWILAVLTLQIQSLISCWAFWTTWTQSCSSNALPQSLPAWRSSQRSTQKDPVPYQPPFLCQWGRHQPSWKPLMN
# assay-info: ATG_Xbp1_CIS: Attagene CIS-FACTORIAL HepG2 Assay for human X-box Binding Protein 1 (XBP1) (AID 2282972)
# run-conditions: HepG2 XBP1 cis-element reporter, Attagene multiplex; actives raise or lower the signal
Activity calls are given as the source filed them. The calls were made as follows: active = hit-call score of the fitted dose curve at least 0.9, where 1 is the maximum; inactive = score below 0.9.
Choose one outcome from this list and give only that: active, inactive

Take a look at these entries with their results.
OCC(F)(F)C(F)(F)C(F)(F)C(F)(F)C(F)(F)C(F)(F)C(F)(F)C(F)(F)C(F)(F)C(F)(F)C(F)(F)F | inactive
CCCCCCC(C)(C)C(=O)O | inactive
O=C(O)CCC(F)(F)C(F)(F)C(F)(F)C(F)(F)C(F)(F)C(F)(F)F | inactive

Recorded call for `CC1=NN(c2ccccc2)C(=O)C1` ?
inactive

---

# Read-out: 3-Hydroxy-3-Methylglutaryl-CoA Synthase 2 (HMGCS2), HMGCS2 (gene 3158)
# assay-info: LTEA_HepaRG_HMGCS2: Life Technologies and Expression Analysis (LTEA) Assay for 3-Hydroxy-3-Methylglutaryl-CoA Synthase 2 (HMGCS2) using HepaRG (AID 2283504)
# run-conditions: mRNA level, 48 h; actives raise or lower the signal
Active and inactive are the calls of the source. Rule for the calls: active = hit-call score of the fitted dose curve at least 0.9, where 1 is the maximum; inactive = score below 0.9.
Choose one outcome from this list and give only that: true = active, false = inactive

Take a look at these entries with their results.
CCCCCCCCCCCCCCC | false
CCCCCCCCCCCCOS(=O)(=O)O | true
CCCCC(CC)C(=O)O (centres undefined) | false
N=C(N)c1ccc(OCCCCCOc2ccc(C(=N)N)cc2)cc1 | true
O=C1NS(=O)(=O)c2ccccc21 | false
CN(Cc1cnc2nc(N)nc(N)c2n1)c1ccc(C(=O)N[C@@H](CCC(=O)O)C(=O)O)cc1 | false
Cc1[nH]nc2c1N=C(c1ccccc1Cl)c1cc([N+](=O)[O-])ccc1N2 | true
CS(=O)(=O)c1ccc([C@@H](CC2CCCC2)C(=O)Nc2cnccn2)cc1Cl | true

Consider now this further compound.
Recorded call for `CC(=O)Nc1ccc(O)cc1` ?
false

---

# assay-info: APR_HepG2_CellCycleArrest_72hr: Apredica 72-hour HepG2 Assay for Cell Cycle Arrest (AID 2282914)
# run-conditions: high-content imaging, actives raise or lower the signal
The source made the active and inactive calls. Rule for the calls: active = hit-call score of the fitted dose curve at least 0.9, where 1 is the maximum; inactive = score below 0.9.
Choose one outcome from this list and give only that: active, inactive

CCCCCCCCCCCCCCC | inactive
CCCCC=O | inactive
CN(Cc1cnc2nc(N)nc(N)c2n1)c1ccc(C(=O)N[C@@H](CCC(=O)O)C(=O)O)cc1 | inactive
OCC(CO)(CBr)CBr | inactive

Consider now this further compound.
Recorded call for `Cc1[nH]nc2c1N=C(c1ccccc1Cl)c1cc([N+](=O)[O-])ccc1N2` ?
active

---

# assay-info: ATG_DR4_LXR_CIS: Attagene CIS-FACTORIAL HepG2 Assay for human Liver X Receptor (LXR), DR4 submotif (AID 2282929)
# run-conditions: HepG2 Attagene DR4 cis-reporter, mRNA transcription; actives raise or lower the signal unless noted
Calls of active or inactive are those of the source. The calls were made as follows: active = hit-call score of the fitted dose curve at least 0.9, where 1 is the maximum; inactive = score below 0.9.
quantity-name: outcome

Example entries begin here.
O=C1OC(=O)c2cc(-c3ccc4c(c3)C(=O)OC4=O)ccc21 | inactive
OCC1CCC(CO)CC1 (centres undefined) | inactive
FC1(F)C=CC(F)(F)C1(F)F | inactive
NC(C(F)(F)F)C(F)(F)F | inactive

Please report the recorded outcome for `C=CC(=C)CC/C=C(\C)CCC=C(C)C` .
inactive

Please report the recorded outcome for `OCC(CO)(CBr)CBr` .
inactive

Please report the recorded outcome for `O=C1NS(=O)(=O)c2ccccc21` .
inactive

Please report the recorded outcome for `Cc1cncc(C)c1` .
inactive

Please report the recorded outcome for `CC[N+](CC)(CC)Cc1ccccc1` .
inactive

Please report the recorded outcome for `C=CC(=O)OCCC(F)(F)C(F)(F)C(F)(F)C(F)(F)C(F)(F)C(F)(F)C(F)(F)C(F)(F)F` .
inactive

Please report the recorded outcome for `O=C(O)CCC(F)(F)C(F)(F)C(F)(F)C(F)(F)C(F)(F)F` .
inactive
